All values here come from ChEMBL document CHEMBL3885861.

Organism: Rattus norvegicus
EXPERIMENT DESCRIPTION: Open TG-GATES - Regimen: Single
Assay type: toxicity, organism-based, Sprague-Dawley
Design: regimen Single, gender Male, age 6 weeks
CONDITION DETAILS: in vivo, po, 30 mg/kg, 9 h, tissue Plasma, route gavage, dose level Middle
Property: CRE; scope: individual compounds

Below, each entry is followed by its recorded CRE result.
CN(C)CCN(Cc1cccs1)c1ccccn1 ... 0.1 mg/dL
CN(C)CCCN1c2ccccc2CCc2ccccc21 [IMIPRAMINE] ... 0.1 mg/dL
CN(C)CCCN1c2ccccc2CCc2ccc(Cl)cc21 [CLOMIPRAMINE] ... 0.2 mg/dL

Consider the record given below.
[ask] Give the reported value of CRE for this record: CC1=C(/C=C/C(C)=C/C=C/C(C)=C/CO)C(C)(C)CCC1 [RETINOL]
[reply] 0.2 mg/dL

----------
This listing pairs compounds with measured IP.
Species: Rattus norvegicus
EXPERIMENT DESCRIPTION: Open TG-GATES - Regimen: Single
Format: toxicity, organism-based, Sprague-Dawley
Parameters: regimen Single, gender Male, age 6 weeks
CONDITION DETAILS: in vivo, po, 10 mg/kg, 24 h, tissue Plasma, route gavage, dose level Low
Supply the numeric figure in mg/dL, leaving out any unit text.

// known answers, use as guide
CN(C)CCCN1c2ccccc2CCc2ccc(Cl)cc21 [CLOMIPRAMINE] ... 8.1
CC(C)OC(=O)C(C)(C)Oc1ccc(C(=O)c2ccc(Cl)cc2)cc1 [FENOFIBRATE] ... 8.6

[ask] Name the recorded IP of the item CN(C)CCN(Cc1cccs1)c1ccccn1 in your answer.
[reply] 7.3

[ask] Consider the compound CC1=C(/C=C/C(C)=C/C=C/C(C)=C/CO)C(C)(C)CCC1 [RETINOL] and give its recorded IP.
[reply] 6.9

[ask] Return value of IP for input CN(C)CCCN1c2ccccc2CCc2ccccc21 [IMIPRAMINE] , no commentary.
[reply] 7.6

----------
Catalogue of compounds with associated TP
Species: Rattus norvegicus
EXPERIMENT DESCRIPTION: Open TG-GATES - Regimen: Daily Repeat
Type: toxicity, organism-based, Sprague-Dawley
Parameters: regimen Daily Repeat, gender Male, age 6 weeks
CONDITION DETAILS: in vivo, po, 100 mg/kg, […], tissue Plasma, route gavage, dose level Low, time 28 day
Express your answer in g/dL, writing the number without its unit.

[ask] Give TP for COC1=CC(=O)C[C@@H](C)[C@]12Oc1c(Cl)c(OC)cc(OC)c1C2=O
[reply] 6

----------
Organism: Rattus norvegicus
EXPERIMENT DESCRIPTION: Open TG-GATES - Regimen: Single
Type: toxicity, organism-based, Sprague-Dawley
Set-up: regimen Single, gender Male, age 6 weeks
CONDITION DETAILS: in vivo, po, 30 mg/kg, 6 h, tissue Plasma, route gavage, dose level Middle
PARAMETER: RALB (g/dL)
Please state the figure in g/dL; there is no need to write the unit.

// known answers, use as guide
CN(C)CCN(Cc1cccs1)c1ccccn1 ... 2.8
CN(C)CCCN1c2ccccc2CCc2ccc(Cl)cc21 ... 2.5
CN(C)CCCN1c2ccccc2CCc2ccccc21 ... 2.5

Note: attention shifts to another entry.
[ask] For CC1=C(/C=C/C(C)=C/C=C/C(C)=C/CO)C(C)(C)CCC1 , write its RALB.
[reply] 3.1

----------
Species on record: Rattus norvegicus
EXPERIMENT DESCRIPTION: Open TG-GATES - Regimen: Daily Repeat
Type: toxicity, organism-based, Sprague-Dawley
Design: regimen Daily Repeat, gender Male, age 6 weeks
CONDITION DETAILS: in vivo, po, 0 mg/kg, […], tissue Blood, route gavage, dose level Control, time 7 day
Known MCV of a selection of compounds
Record the value in fL, omitting the unit from your answer.

Below, 2 compounds whose answers are already recorded.
CCOC(=O)CCC(=O)O[C@H]1[C@H](O[C@@H]2[C@@H](C)[C@H](O[C@H]3C[C@@](C)(OC)[C@@H](O)[C@H](C)O3)[C@@H](C)C(=O)O[C@H](CC)[C@@](C)(O)[C@H](O)[C@@H](C)C(=O)[C@H](C)C[C@@]2(C)O)O[C@H](C)C[C@@H]1N(C)C [ERYTHROMYCIN ETHYLSUCCINATE] ... 62.4
CCOc1ccc(NC(=O)CC(C)O)cc1 (stereo not drawn) ... 61.5

[ask] // Input: NNC(=O)c1ccncc1 . Output its MCV only.
[reply] 64.2

[ask] Please look at this compound and report its MCV: COc1ccc2[nH]c([S+]([O-])Cc3ncc(C)c(OC)c3C)nc2c1 (stereo not drawn)
[reply] 60.2

----------
Species: Rattus norvegicus
EXPERIMENT DESCRIPTION: Open TG-GATES - Regimen: Daily Repeat
Assay type: toxicity, organism-based, Sprague-Dawley
Parameters: regimen Daily Repeat, gender Male, age 6 weeks
CONDITION DETAILS: in vivo, po, 0 mg/kg, […], tissue Plasma, route gavage, dose level Control, time 14 day
PARAMETER: LDH (IU/L)
Answer in IU/L, number only, no unit symbol.

# annotated cases, reported LDH shown
NNC(=O)c1ccncc1 ... 160
NC(N)=Nc1nc(CSCCC(N)=NS(N)(=O)=O)cs1 ... 153.2
CC1=C(/C=C/C(C)=C/C=C/C(C)=C/CO)C(C)(C)CCC1 ... 226.8

[ask] Please give the documented LDH of CCCNC(=O)NS(=O)(=O)c1ccc(Cl)cc1 [CHLORPROPAMIDE]
[reply] 120

----------
# reported Bas; entries follow
Organism: Rattus norvegicus
EXPERIMENT DESCRIPTION: Open TG-GATES - Regimen: Single
Type: toxicity, organism-based, Sprague-Dawley
Design: regimen Single, gender Male, age 6 weeks
CONDITION DETAILS: in vivo, po, 10 mg/kg, 3 h, tissue Blood, route gavage, dose level Low
Reply numerically in %, unit not repeated.

Solved cases below.
CN(C)CCCN1c2ccccc2CCc2ccc(Cl)cc21 ... 0.4
CC1=C(/C=C/C(C)=C/C=C/C(C)=C/CO)C(C)(C)CCC1 ... 0
CN(C)CCN(Cc1cccs1)c1ccccn1 ... 0
CC(C)OC(=O)C(C)(C)Oc1ccc(C(=O)c2ccc(Cl)cc2)cc1 [FENOFIBRATE] ... 0.2

Now turn to the next molecule.
[ask] Dear colleague, please send me the reported Bas for CN(C)CCCN1c2ccccc2CCc2ccccc21 when you can.
[reply] 0

----------
Species on record: Rattus norvegicus
EXPERIMENT DESCRIPTION: Open TG-GATES - Regimen: Daily Repeat
Assay type: toxicity, organism-based, Sprague-Dawley
Parameters: regimen Daily Repeat, gender Male, age 6 weeks
CONDITION DETAILS: in vivo, po, 0 mg/kg, […], route gavage, dose level Control, time 7 day
We begin with a simple list: items and their reported TERMINAL_BW.
Entry rule: numbers only, all in g.

[ask] Return TERMINAL_BW for the following compound: CC1=C(/C=C/C(C)=C/C=C/C(C)=C/CO)C(C)(C)CCC1
[reply] 257.6

[ask] Hello, please tell me recorded TERMINAL_BW for this one: NNC(=O)c1ccncc1
[reply] 251.9

[ask] Give recorded TERMINAL_BW. COC1=CC(=O)C[C@@H](C)[C@]12Oc1c(Cl)c(OC)cc(OC)c1C2=O
[reply] 261.4

[ask] Please report TERMINAL_BW for the following compound: CN1C(=O)CN=C(c2ccccc2)c2cc(Cl)ccc21
[reply] 289.2

[ask] Using the record for CN(C)CCN(Cc1cccs1)c1ccccn1 , state its measured TERMINAL_BW.
[reply] 246.2

[ask] Specify measured TERMINAL_BW for CCCNC(=O)NS(=O)(=O)c1ccc(Cl)cc1 [CHLORPROPAMIDE] .
[reply] 251.8

[ask] Tell me its TERMINAL_BW given CC(C)OC(=O)C(C)(C)Oc1ccc(C(=O)c2ccc(Cl)cc2)cc1 [FENOFIBRATE] as the entry.
[reply] 254.4

[ask] Return value of TERMINAL_BW for input CN(C)CCCN1c2ccccc2CCc2ccccc21 , no commentary.
[reply] 270.9

[ask] Supply reported TERMINAL_BW belonging to this compound: NC(N)=Nc1nc(CSCCC(N)=NS(N)(=O)=O)cs1
[reply] 257.4

[ask] Read off the recorded TERMINAL_BW for O=C(CCCN1CCC(O)(c2ccc(Cl)cc2)CC1)c1ccc(F)cc1
[reply] 261.8

----------
Entries and their ALP values follow.
Species: Rattus norvegicus
EXPERIMENT DESCRIPTION: Open TG-GATES - Regimen: Daily Repeat
Format: toxicity, organism-based, Sprague-Dawley
Design: regimen Daily Repeat, gender Male, age 6 weeks
CONDITION DETAILS: in vivo, po, 0 mg/kg, […], tissue Plasma, route gavage, dose level Control, time 14 day
API: value field is a number in IU/L; no unit string.

# count of solved cases: 2
COc1ccc2[nH]c([S+]([O-])Cc3ncc(C)c(OC)c3C)nc2c1 (stereo not drawn) ... 734.6
O=C(CCCN1CCC(O)(c2ccc(Cl)cc2)CC1)c1ccc(F)cc1 ... 784.8

[ask] Please indicate ALP recorded for CN1C(=O)CN=C(c2ccccc2)c2cc(Cl)ccc21
[reply] 714
